# SYSTEM: rat NPY Y5 receptor (Y861 clone) (Rattus norvegicus, UniProt Q63634)
# Sequence (Q63634 1-445): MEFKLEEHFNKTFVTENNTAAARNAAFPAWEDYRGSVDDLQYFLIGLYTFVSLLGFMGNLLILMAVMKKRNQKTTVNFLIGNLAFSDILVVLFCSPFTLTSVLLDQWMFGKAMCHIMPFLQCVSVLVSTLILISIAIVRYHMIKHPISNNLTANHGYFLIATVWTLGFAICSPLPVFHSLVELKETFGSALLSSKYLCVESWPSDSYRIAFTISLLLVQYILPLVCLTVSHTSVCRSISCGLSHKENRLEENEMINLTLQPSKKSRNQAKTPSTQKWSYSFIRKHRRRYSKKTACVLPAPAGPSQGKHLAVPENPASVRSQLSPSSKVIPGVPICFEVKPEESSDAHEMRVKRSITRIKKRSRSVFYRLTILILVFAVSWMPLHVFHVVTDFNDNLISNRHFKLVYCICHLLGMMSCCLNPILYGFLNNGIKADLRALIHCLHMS
pKi: −log10 of the molar value.
MEASURED_PARAMETER: pKi

Task item: Which value of pKi has been reported for NC(N)=NCCC[C@@H](NC(=O)C(c1ccccc1)c1ccccc1)C(=O)NCc1ccc(O)cc1 [BIBP3226] in the records?
Reply: < 6.00
